Would you mind telling me the reported Ki of each entry?
assay.target: recombinant human ALK5 (TGF-βR1) protein (Homo sapiens, UniProt P36897)
Construct: purchased Life Technologies PR9075A
Sequence (P36897 34-503): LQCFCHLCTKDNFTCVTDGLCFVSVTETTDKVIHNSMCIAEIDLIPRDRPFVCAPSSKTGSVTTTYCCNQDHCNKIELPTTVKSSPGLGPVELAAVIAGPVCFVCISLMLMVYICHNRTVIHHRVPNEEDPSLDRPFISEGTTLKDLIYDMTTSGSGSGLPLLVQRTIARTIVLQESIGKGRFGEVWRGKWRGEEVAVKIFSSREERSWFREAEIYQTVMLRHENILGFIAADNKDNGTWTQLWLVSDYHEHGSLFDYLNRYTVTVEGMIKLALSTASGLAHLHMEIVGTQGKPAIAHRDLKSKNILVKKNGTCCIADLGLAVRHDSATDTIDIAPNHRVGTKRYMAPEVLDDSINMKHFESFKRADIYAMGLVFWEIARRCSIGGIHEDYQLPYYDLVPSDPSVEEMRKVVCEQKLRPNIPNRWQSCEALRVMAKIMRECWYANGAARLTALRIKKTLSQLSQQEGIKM
method.notes: Biochemical ALK5 (TGF-βR1) assay to measure pKi (LANCE Ultra ULight kinase assay)
condition.context: apparent pKi from pIC50 by Cheng-Prusoff, read-out: ALK5 pKi (converted)

Tell me the measured Ki of Cc1cccc(-c2n[nH]cc2-c2ccc3nccc(NCC(=O)N4CCOCC4)c3n2)n1 , please.
0.398 to 3.16 nM

Thanks! And Cc1cccc(-c2n[nH]cc2-c2ccc3nccc(NCCN4CCOCC4)c3n2)n1 ?
0.398 to 3.16 nM

// next record Cc1cccc(-c2[nH]cnc2-c2ccc3nccc(C(=O)O[C@H]4C[C@@H](N)C4)c3c2)n1
0.398 to 3.16 nM

Quick one: FC(F)(F)c1cccc(-c2n[nH]cc2-c2ccc3ncc(N4CCCNCC4)cc3n2)n1
0.398 to 3.16 nM

Now this one: CNC(=O)c1cnc2ccc(-c3cn[nH]c3-c3cccc(C)n3)nc2c1
0.0398 to 0.316 nM

Input Cc1cccc(-c2[nH]cnc2-c2ccc3ncc(-c4cccc(C(=O)O[C@@H]5CCN(C)C5)c4)cc3c2)n1
0.0398 to 0.316 nM

How about Cc1cccc(-c2[nH]cnc2-c2ccc3ncc(-c4ccc(C(=O)O)cn4)cc3c2)n1 ?
< 0.0316 nM

Then this molecule: Cc1cccc(-c2[nH]cnc2-c2ccc3ncc(-c4cc(C(=O)OCC5CNC5)ccn4)cc3c2)n1
0.0398 to 0.316 nM

Next up: Cc1cccc(-c2n[nH]cc2-c2ccc3nccc(N(C)CC(=O)N4CCOCC4)c3n2)n1
3.98 to 31.6 nM

Queued: Cc1cccc(-c2n[nH]cc2-c2ccc3ncc(N4CCN(CCNC(C)C)CC4)cc3n2)n1
0.0398 to 0.316 nM

Same thing, different molecule: Cc1cccc(-c2[nH]cnc2-c2ccc3ncc(NCCN4CCCC4(C)C)cc3n2)n1
0.0398 to 0.316 nM

Please answer likewise for Cc1cccc(-c2n[nH]cc2-c2ccc3ncc(-c4cnn(CCN)c4)cc3c2)n1
< 0.0316 nM

And the next one, CNCCn1cc(-c2cnc3ccc(-c4nc[nH]c4-c4cccc(C)n4)nc3c2)cn1 ?
0.0398 to 0.316 nM

Now consider Cc1cccc(-c2[nH]cnc2-c2ccc3ncc(-c4csc(C(=O)OCC5CNC5)c4)cc3c2)n1 .
0.0398 to 0.316 nM

Also, Cc1cccc(-c2n[nH]cc2-c2ccc3ncc(N4CC5CNCC54)cc3n2)n1 (stereo not shown) please.
0.398 to 3.16 nM

Would you mind doing Cc1cccc(-c2n[nH]cc2-c2ccc3ncc(N4CCN(Cc5cccnc5)CC4)cc3n2)n1 as well?
0.0398 to 0.316 nM

Same lookup for Cc1cccc(-c2[nH]cnc2-c2ccc3ncc(-c4nccc(C(=O)O[C@H]5CCNC5)n4)cc3c2)n1 , please.
0.398 to 3.16 nM

Also Cc1cccc(-c2n[nH]cc2-c2ccc3ncc(NCCN4CCN(C)CC4)cc3n2)n1 ?
0.0398 to 0.316 nM

Thanks! And Cc1cccc(-c2[nH]cnc2-c2ccc3ncc(-c4ncc(C(=O)OC5CNC5)cn4)cc3c2)n1 ?
0.0398 to 0.316 nM

Next entry: Cc1cccc(-c2n[nH]cc2-c2ccc3ncc(-c4cnn5c4NCC5)cc3n2)n1
< 0.0316 nM

What about Cc1nc(-c2n[nH]cc2-c2ccc3ncc(-c4cnn([C@@H]5CCCC[C@H]5N)c4)cc3n2)ccc1F ?
< 0.0316 nM

Same question, Cc1cccc(-c2n[nH]cc2-c2ccc3ncc(-c4cnn(CC(=O)N5CCNCC5)c4)cc3n2)n1 this time
0.0398 to 0.316 nM

Try this molecule next: Cc1cccc(-c2[nH]cnc2-c2ccc3ncc(-c4ccc(C(=O)OC5CNC5)cc4)cc3c2)n1
0.0398 to 0.316 nM

Thanks! And COC(=O)[C@@H]1CN(CCNc2cnc3ccc(-c4nc[nH]c4-c4cccc(C)n4)cc3c2)CCN1 ?
0.0398 to 0.316 nM

Proceed to Cc1cccc(-c2[nH]ncc2-c2ccc3ncc(C(=O)OCCC4CNC4)cc3c2)n1
< 0.0316 nM
